The measured values listed here are drawn from ChEMBL document CHEMBL1154542.

A collection of molecules and their measured Activity
# measuredOn: Cytochrome P450 1A2 (Homo sapiens, UniProt P05177)
# Sequence (P05177 whole entry): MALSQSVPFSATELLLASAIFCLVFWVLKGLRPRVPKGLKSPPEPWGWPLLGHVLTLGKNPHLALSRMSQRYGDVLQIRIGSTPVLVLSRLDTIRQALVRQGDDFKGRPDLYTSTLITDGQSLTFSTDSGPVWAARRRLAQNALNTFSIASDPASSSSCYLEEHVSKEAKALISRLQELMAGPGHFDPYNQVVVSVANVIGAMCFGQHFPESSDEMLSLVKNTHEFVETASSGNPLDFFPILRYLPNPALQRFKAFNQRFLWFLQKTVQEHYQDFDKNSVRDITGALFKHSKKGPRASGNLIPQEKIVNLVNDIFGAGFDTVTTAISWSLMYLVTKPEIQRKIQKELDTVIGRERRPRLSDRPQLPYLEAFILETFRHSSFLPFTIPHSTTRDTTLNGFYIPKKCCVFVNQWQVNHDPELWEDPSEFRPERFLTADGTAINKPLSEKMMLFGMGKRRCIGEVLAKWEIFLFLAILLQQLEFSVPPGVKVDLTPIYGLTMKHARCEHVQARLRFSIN
# testName: Inhibition of CYP1A2
# Format: ADME

1. COc1ccc(S(=O)(=O)N(Cc2ccc(-c3ccccc3C)cn2)c2ccc(OC)nc2)cc1: 33 µM
2. COc1ccc(N(Cc2ccc(-c3ccccc3C)cn2)S(=O)(=O)c2cn(C)cn2)cn1: 19 µM
3. COc1ccc(S(=O)(=O)N(Cc2ccc(-c3ccccc3Cl)cn2)c2ccc(OC)nc2)cc1: 33 µM

Okay, now this molecule:
Per the records, this molecule ( COc1ccc(N(Cc2ccc(-c3ccccc3C)cn2)S(=O)(=O)c2cn(C)c(C)n2)cn1 ) has Activity equal to 18 µM

---

# measuredOn: UniProt P08684
# testName: Inhibition of CYP3A4 using diethoxyfluorescein as substrate
# Type: ADME
propertyLabel: Activity (µM)
A number alone suffices; assume µM.

1) COc1ccc(S(=O)(=O)N(Cc2ccc(-c3ccccc3C)cn2)c2ccc(OC)nc2)cc1: 0.71

For this compound ( COc1ccc(N(Cc2ccc(-c3ccccc3C)cn2)S(=O)(=O)c2cn(C)cn2)cn1 ), measured Activity is 2.8

Noted for COc1ccc(S(=O)(=O)N(Cc2ccc(-c3ccccc3Cl)cn2)c2ccc(OC)nc2)cc1 : its Activity reads 0.75

So for COc1ccc(N(Cc2ccc(-c3ccccc3C)cn2)S(=O)(=O)c2cn(C)c(C)n2)cn1 , the logged Activity turned out to be 1.3

---

Listed here are compounds together with their documented Activity.
# measuredOn: Cytochrome P450 3A4 (Homo sapiens, UniProt P08684)
# Sequence (P08684 whole entry): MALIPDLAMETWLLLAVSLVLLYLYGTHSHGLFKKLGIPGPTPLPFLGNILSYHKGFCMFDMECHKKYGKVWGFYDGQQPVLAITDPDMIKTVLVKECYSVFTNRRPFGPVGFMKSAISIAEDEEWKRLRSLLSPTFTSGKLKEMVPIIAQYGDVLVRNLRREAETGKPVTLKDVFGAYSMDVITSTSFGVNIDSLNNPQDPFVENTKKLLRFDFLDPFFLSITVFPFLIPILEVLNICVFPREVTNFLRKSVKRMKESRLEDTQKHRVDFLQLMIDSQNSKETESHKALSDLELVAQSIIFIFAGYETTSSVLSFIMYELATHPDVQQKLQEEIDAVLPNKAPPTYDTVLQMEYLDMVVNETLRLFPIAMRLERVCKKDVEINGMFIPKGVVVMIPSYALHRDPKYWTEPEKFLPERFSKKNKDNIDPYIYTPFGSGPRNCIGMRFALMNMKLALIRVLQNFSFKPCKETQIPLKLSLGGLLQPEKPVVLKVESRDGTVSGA
# testName: Inhibition of CYP3A4 using 7-benzloxyquinolone as substrate
# Type: ADME
Hi! Could you send only the number? It should be in µM, unit omitted.

1. COc1ccc(N(Cc2ccc(-c3ccccc3C)cn2)S(=O)(=O)c2cn(C)cn2)cn1: 33
2. COc1ccc(N(Cc2ccc(-c3ccccc3C)cn2)S(=O)(=O)c2cn(C)c(C)n2)cn1: 4.8

Entry under test: COc1ccc(S(=O)(=O)N(Cc2ccc(-c3ccccc3Cl)cn2)c2ccc(OC)nc2)cc1 . Its Activity was 2.2

Reported Activity for COc1ccc(S(=O)(=O)N(Cc2ccc(-c3ccccc3C)cn2)c2ccc(OC)nc2)cc1 was 2.1
